Hi there, I'd appreciate the recorded IC50 for every entry that follows.
The reply should be a number in µM, with the unit left off.

# query: IC50 | item O=C(c1noc(-c2cc(F)c(F)c(O)c2F)n1)N1CCCC(OCc2ccccc2)C1 (stereo not drawn) [Example 94] | system: CYP2C9 (Homo sapiens (Human), UniProt P11712) 1.2

# get_value(readout= IC50, system= CYP2C9 (Homo sapiens (Human), UniProt P11712)) for N#Cc1ccc(C2CN(C(=O)c3noc(-c4cc(F)c(F)c(O)c4F)n3)C2)cc1 [Example 59] 13.1

What measured IC50 is associated with O=C(c1noc(-c2cc(F)c(F)c(O)c2F)n1)N1CC2CCC(C1)C2(F)F [Example 43] on CYP2C9 (Homo sapiens (Human), UniProt P11712)? 13.9
